B1: ZNF8 (parent)
chain: SLGRHKRTHTGEKPYTCSVCGKSF

Variants of: B1
Test: protein stability index of a GFP-peptide fusion (GPS, HEK-293T) (PSI 1-6); higher = more stable;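 note: lentivirally expressed fusions sorted by FACS into six bins by GFP to DsRed ratio, PSI derived from sequencing read proportions per bin multiplied by bin number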
Details: c terminus: a fixed tail appended
Where protein stability index equals or exceeds 3, the correct label is yes; where it does not, the label is no.

Given the entry `T10D` , answer whether its protein stability index meets or surpasses 3.
yes

Given the entry `C17W` , answer whether its protein stability index meets or surpasses 3.
no

Given the entry `H5A` , answer whether its protein stability index meets or surpasses 3.
no

Given the entry `K6D` , answer whether its protein stability index meets or surpasses 3.
yes

Given the entry `R7A` , answer whether its protein stability index meets or surpasses 3.
no

Given the entry `Y15S` , answer whether its protein stability index meets or surpasses 3.
no

Given the entry `K22H` , answer whether its protein stability index meets or surpasses 3.
yes

Given the entry `Y15M` , answer whether its protein stability index meets or surpasses 3.
no

Given the entry `K13N` , answer whether its protein stability index meets or surpasses 3.
no

Given the entry `H9S` , answer whether its protein stability index meets or surpasses 3.
no

Given the entry `G11F` , answer whether its protein stability index meets or surpasses 3.
no

Given the entry `S23W` , answer whether its protein stability index meets or surpasses 3.
no

Given the entry `G3C` , answer whether its protein stability index meets or surpasses 3.
yes

Given the entry `T8N` , answer whether its protein stability index meets or surpasses 3.
no

Given the entry `F24H` , answer whether its protein stability index meets or surpasses 3.
yes

Given the entry `T10S` , answer whether its protein stability index meets or surpasses 3.
yes

Given the entry `Y15E` , answer whether its protein stability index meets or surpasses 3.
no

Given the entry `R7V` , answer whether its protein stability index meets or surpasses 3.
yes

Given the entry `G3R` , answer whether its protein stability index meets or surpasses 3.
no

Given the entry `G11E` , answer whether its protein stability index meets or surpasses 3.
no

Given the entry `H9F` , answer whether its protein stability index meets or surpasses 3.
no

Given the entry `P14W` , answer whether its protein stability index meets or surpasses 3.
yes

Given the entry `T8F` , answer whether its protein stability index meets or surpasses 3.
no

Given the entry `Y15W` , answer whether its protein stability index meets or surpasses 3.
no

Given the entry `K13R` , answer whether its protein stability index meets or surpasses 3.
no

Given the entry `E12R` , answer whether its protein stability index meets or surpasses 3.
yes

Given the entry `T8Y` , answer whether its protein stability index meets or surpasses 3.
no

Given the entry `L2P` , answer whether its protein stability index meets or surpasses 3.
no

Given the entry `S18W` , answer whether its protein stability index meets or surpasses 3.
no

Given the entry `S1G` , answer whether its protein stability index meets or surpasses 3.
no

Given the entry `R7W` , answer whether its protein stability index meets or surpasses 3.
no

Given the entry `L2F` , answer whether its protein stability index meets or surpasses 3.
no

Given the entry `K22F` , answer whether its protein stability index meets or surpasses 3.
no

Given the entry `P14N` , answer whether its protein stability index meets or surpasses 3.
yes

Given the entry `E12T` , answer whether its protein stability index meets or surpasses 3.
no

Given the entry `H9V` , answer whether its protein stability index meets or surpasses 3.
no

Given the entry `K6V` , answer whether its protein stability index meets or surpasses 3.
no

Given the entry `C20P` , answer whether its protein stability index meets or surpasses 3.
yes

Given the entry `E12L` , answer whether its protein stability index meets or surpasses 3.
no

Given the entry `Y15D` , answer whether its protein stability index meets or surpasses 3.
no

Given the entry `T10G` , answer whether its protein stability index meets or surpasses 3.
yes

Given the entry `C17N` , answer whether its protein stability index meets or surpasses 3.
yes

Given the entry `H9N` , answer whether its protein stability index meets or surpasses 3.
no

Given the entry `K22S` , answer whether its protein stability index meets or surpasses 3.
no

Given the entry `E12Q` , answer whether its protein stability index meets or surpasses 3.
no

Given the entry `H5G` , answer whether its protein stability index meets or surpasses 3.
yes

Given the entry `S18Y` , answer whether its protein stability index meets or surpasses 3.
no

Given the entry `R4W` , answer whether its protein stability index meets or surpasses 3.
no

Given the entry `S1F` , answer whether its protein stability index meets or surpasses 3.
no

Given the entry `H9K` , answer whether its protein stability index meets or surpasses 3.
yes

Given the entry `T8W` , answer whether its protein stability index meets or surpasses 3.
no

Given the entry `R4C` , answer whether its protein stability index meets or surpasses 3.
yes

Given the entry `F24N` , answer whether its protein stability index meets or surpasses 3.
yes

Given the entry `C20E` , answer whether its protein stability index meets or surpasses 3.
yes

Given the entry `R7H` , answer whether its protein stability index meets or surpasses 3.
yes

Given the entry `E12H` , answer whether its protein stability index meets or surpasses 3.
no

Given the entry `P14L` , answer whether its protein stability index meets or surpasses 3.
yes

Given the entry `R4I` , answer whether its protein stability index meets or surpasses 3.
no

Given the entry `L2M` , answer whether its protein stability index meets or surpasses 3.
no

Given the entry `G11A` , answer whether its protein stability index meets or surpasses 3.
no

Given the entry `S1Y` , answer whether its protein stability index meets or surpasses 3.
no

Given the entry `Y15H` , answer whether its protein stability index meets or surpasses 3.
no

Given the entry `G3W` , answer whether its protein stability index meets or surpasses 3.
no

Given the entry `T8R` , answer whether its protein stability index meets or surpasses 3.
no

Given the entry `F24M` , answer whether its protein stability index meets or surpasses 3.
no

Given the entry `F24A` , answer whether its protein stability index meets or surpasses 3.
yes

Given the entry `R7G` , answer whether its protein stability index meets or surpasses 3.
yes

Given the entry `G3D` , answer whether its protein stability index meets or surpasses 3.
yes

Given the entry `S18V` , answer whether its protein stability index meets or surpasses 3.
no

Given the entry `G3E` , answer whether its protein stability index meets or surpasses 3.
yes

Given the entry `Y15G` , answer whether its protein stability index meets or surpasses 3.
no
